biological target: EGFR WT (Homo sapiens, UniProt P00533)
pIC50: −log10 of the molar value.
Parameter threshold = 7. Response is 1.0 when pIC50 meets or exceeds it, else 0.0.

Here are 2 molecules together with their reported answers.
CP(C)(=O)c1ccccc1Nc1nc(Nc2ccc(N3CCC4(CC3)CC(NC3CCCC3)C4)c(Cl)c2)ncc1Cl
1.0
CP(C)(=O)c1ccccc1Nc1nc(Nc2ccc(N3CCC4(CC3)CC(N)C4)c(F)c2)ncc1Cl
1.0

Q. hey, is pIC50 for this one >= 7? Cc1cc(Nc2ncc(Cl)c(Nc3ccccc3P(C)(C)=O)n2)ccc1N1CC2(CCC(N(C)C)CC2)C1
A. 1.0

Q. Reported pIC50 reaches at least 7 for Cc1cc(Nc2nc(Nc3ccccc3P(C)(C)=O)c3nc[nH]c3n2)ccc1N1CCC2(CC1)CC(N)C2 ?
A. 1.0

Q. Tell me whether pIC50 is at least 7 here: Cc1cc(Nc2ncc(Cl)c(Nc3ccccc3P(C)(C)=O)n2)ccc1N1CC2(CCC(NC3CC3)CC2)C1
A. 1.0

Q. Test whether the molecule COc1cnc(Nc2ccc(N3CC4(CC(N)C4)C3)c(C)c2)nc1Nc1ccccc1P(C)(C)=O records pIC50 of 7 or higher.
A. 0.0

---

biological target: EGFR L858R/T790M/C797S (Homo sapiens, UniProt P00533, C797S/L858R/T790M); assay: Kinase assay (mobility shift), EGFR L858R/T790M/C797S; assay type: biochemical; conditions: numeric values
Sequence (P00533 25-1210 T790M/C797S/L858R): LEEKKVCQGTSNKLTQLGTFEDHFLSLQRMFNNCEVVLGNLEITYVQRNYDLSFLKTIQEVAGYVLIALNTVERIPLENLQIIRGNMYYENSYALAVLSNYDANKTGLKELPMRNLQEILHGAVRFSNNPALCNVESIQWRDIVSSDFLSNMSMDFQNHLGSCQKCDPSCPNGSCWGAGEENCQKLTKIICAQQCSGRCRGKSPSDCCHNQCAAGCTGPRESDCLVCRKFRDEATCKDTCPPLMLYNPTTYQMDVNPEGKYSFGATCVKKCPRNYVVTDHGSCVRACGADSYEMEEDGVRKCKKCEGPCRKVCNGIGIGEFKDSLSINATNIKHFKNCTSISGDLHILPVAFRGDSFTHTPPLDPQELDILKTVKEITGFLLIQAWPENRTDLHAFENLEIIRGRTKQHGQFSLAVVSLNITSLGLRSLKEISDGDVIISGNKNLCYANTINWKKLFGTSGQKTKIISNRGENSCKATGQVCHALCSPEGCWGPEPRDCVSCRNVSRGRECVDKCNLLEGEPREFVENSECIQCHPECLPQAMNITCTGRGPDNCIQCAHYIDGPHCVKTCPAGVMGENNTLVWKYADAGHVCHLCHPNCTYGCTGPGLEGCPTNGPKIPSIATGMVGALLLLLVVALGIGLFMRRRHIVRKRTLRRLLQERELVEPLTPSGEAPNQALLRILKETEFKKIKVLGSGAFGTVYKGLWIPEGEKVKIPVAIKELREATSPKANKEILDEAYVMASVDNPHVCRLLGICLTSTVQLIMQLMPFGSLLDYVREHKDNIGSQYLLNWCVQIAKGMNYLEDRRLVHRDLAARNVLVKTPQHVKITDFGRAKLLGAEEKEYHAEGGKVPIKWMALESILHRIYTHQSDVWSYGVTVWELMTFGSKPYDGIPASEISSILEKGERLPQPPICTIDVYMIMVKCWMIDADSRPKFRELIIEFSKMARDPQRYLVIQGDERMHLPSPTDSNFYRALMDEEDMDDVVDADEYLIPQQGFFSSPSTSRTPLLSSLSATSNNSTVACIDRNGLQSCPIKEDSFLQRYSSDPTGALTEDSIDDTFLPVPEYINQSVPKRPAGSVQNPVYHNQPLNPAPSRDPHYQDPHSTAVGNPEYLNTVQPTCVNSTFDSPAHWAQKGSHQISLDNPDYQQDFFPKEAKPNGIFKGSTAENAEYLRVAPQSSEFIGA
value_type: pIC50
Convention used: pIC50 is expressed as -log10 of the molar concentration.

Below, 5 compounds whose answers are already recorded.
Cc1cc(Nc2ncc(F)c(Nc3ccccc3P(C)(C)=O)n2)ccc1N1CC2(CC(N)C2)C1
7.74
Cc1cc(Nc2ncc(Cl)c(Nc3ccccc3P(C)(C)=O)n2)ccc1N1CCC2(CC1)CC(N)C2
8.92
CN(C)C1CCC2(CC1)CN(c1ccc(Nc3ncc(Cl)c(Nc4ccccc4P(C)(C)=O)n3)cc1C1CC1)C2
8.82
CP(C)(=O)c1ccccc1Nc1nc(Nc2ccc(N3CCC4(CC3)CC(N)C4)c(Cl)c2)ncc1Cl
8.80
CN(C)C1CC2(CCN(c3ccc(Nc4ncc(Cl)c(Nc5ccccc5P(C)(C)=O)n4)cc3Cl)CC2)C1
8.89

Documented pIC50 of COc1cnc(Nc2ccc(N3CCC4(CC3)CC(N)C4)c(C)c2)nc1Nc1ccccc1P(C)(C)=O : 8.36

pIC50 reported for this compound CN(C)C1CC2(CCN(c3ccc(Nc4ncc(Cl)c(Nc5ccccc5P(C)(C)=O)n4)cc3F)CC2)C1 : 8.96

What the record says about CN(C)C1CCC2(CC1)CN(c1ccc(Nc3ncc(Cl)c(Nc4ccccc4P(C)(C)=O)n3)cc1)C2 : pIC50 is 8.89

Kindly note the recorded pIC50 for CNC1CC2(CCN(c3ccc(Nc4ncc(Cl)c(Nc5ccccc5P(C)(C)=O)n4)cc3Cl)CC2)C1 , which is 8.64

Measured pIC50 of CN(C)C1CCC2(CC1)CN(c1ccc(Nc3ncc(Cl)c(Nc4ccccc4P(C)(C)=O)n3)cc1Cl)C2 : 9.15

Please fill in: pIC50 reported for CP(C)(=O)c1ccccc1Nc1nc(Nc2ccc(N3CCC4(CC3)CC(NC3CCCC3)C4)c(Cl)c2)ncc1Cl = 8.80

---

experiment: Pharmacokinetic assay, oral administration; format: in vivo; conditions: rat, male SD rats, p.o. 5 mg/kg, plasma, formulation differs per row
value_type: half-life
The reply must contain the numeric value and, after it, the unit.

Cc1cc(Nc2ncc(Cl)c(Nc3ccccc3P(C)(C)=O)n2)ccc1N1CC2(CCC(NC3CC3)CC2)C1 [Example 4]
6.27 h

Reported half-life for Cc1cc(Nc2ncc(Cl)c(Nc3ccccc3P(C)(C)=O)n2)ccc1N1CCC2(CC1)CC(N(C)C)C2 [Example 15] was 4.38 h

CN(C)C1CC2(CCN(c3ccc(Nc4ncc(Cl)c(Nc5ccccc5P(C)(C)=O)n4)cc3Cl)CC2)C1 [Example 6] has a reported half-life of 3 h

Documented half-life of CP(C)(=O)c1ccccc1Nc1nc(Nc2ccc(N3CCC4(CC3)CC(N)C4)c(Cl)c2)ncc1Cl [Example 8] : 3.17 h

Reported half-life for CCN1CC2(C1)CN(c1ccc(Nc3ncc(Cl)c(Nc4ccccc4P(C)(C)=O)n3)cc1C)C2 [Comparative compound B, reference compound] was 4.09 h

Value of measured half-life for the entry CN(C)C1CCC2(CC1)CN(c1ccc(Nc3ncc(Cl)c(Nc4ccccc4P(C)(C)=O)n3)cc1Cl)C2 [Example 10] : 9.06 h

---

target: EGFR Del19/T790M/C797S (Homo sapiens, UniProt P00533, T790M/C797S, form not given); assay: Kinase assay (mobility shift), EGFR Del19/T790M/C797S
Sequence (P00533 with tags, fused parts or gaps DEL746-750/T790M/C797S, form open): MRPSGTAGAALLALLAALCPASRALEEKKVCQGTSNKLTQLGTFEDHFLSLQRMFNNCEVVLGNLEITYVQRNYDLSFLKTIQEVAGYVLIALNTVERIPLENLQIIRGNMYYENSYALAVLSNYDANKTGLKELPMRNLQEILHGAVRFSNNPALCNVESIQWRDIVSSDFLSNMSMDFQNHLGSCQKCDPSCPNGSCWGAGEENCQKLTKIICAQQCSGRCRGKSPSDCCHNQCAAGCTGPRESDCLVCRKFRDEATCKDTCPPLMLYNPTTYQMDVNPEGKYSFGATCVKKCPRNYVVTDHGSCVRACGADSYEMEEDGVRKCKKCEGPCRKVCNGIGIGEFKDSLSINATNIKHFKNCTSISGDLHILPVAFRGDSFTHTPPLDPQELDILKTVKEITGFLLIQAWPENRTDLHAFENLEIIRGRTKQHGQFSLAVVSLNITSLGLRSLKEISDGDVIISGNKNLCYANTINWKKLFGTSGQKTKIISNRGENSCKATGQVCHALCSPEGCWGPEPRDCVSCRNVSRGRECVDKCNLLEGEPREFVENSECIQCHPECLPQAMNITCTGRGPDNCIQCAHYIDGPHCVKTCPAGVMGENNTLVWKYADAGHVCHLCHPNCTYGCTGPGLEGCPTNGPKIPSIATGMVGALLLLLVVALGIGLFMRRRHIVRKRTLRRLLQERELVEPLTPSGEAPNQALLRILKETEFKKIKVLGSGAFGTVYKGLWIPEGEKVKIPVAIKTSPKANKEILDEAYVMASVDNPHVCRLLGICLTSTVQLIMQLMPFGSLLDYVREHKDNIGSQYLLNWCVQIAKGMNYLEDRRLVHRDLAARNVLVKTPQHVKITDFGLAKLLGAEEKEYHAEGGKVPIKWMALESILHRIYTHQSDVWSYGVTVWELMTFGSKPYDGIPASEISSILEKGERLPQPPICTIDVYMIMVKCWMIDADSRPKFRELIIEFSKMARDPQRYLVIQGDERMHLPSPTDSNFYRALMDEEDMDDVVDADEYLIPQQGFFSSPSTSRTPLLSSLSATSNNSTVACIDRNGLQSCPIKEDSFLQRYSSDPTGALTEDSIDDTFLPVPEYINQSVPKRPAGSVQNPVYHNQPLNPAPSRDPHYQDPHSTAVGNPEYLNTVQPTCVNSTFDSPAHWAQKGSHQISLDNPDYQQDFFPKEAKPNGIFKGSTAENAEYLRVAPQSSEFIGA
value_type: IC50 (nM)
Give the number; nM is assumed, so skip it.

CN(C)C1CCC2(CC1)CN(c1ccc(Nc3ncc(Cl)c(Nc4ccccc4P(C)(C)=O)n3)cc1)C2 [Example 13]
0.6
CN(C)[C@@H]1CCN(C2CC3(CCN(c4ccc(Nc5ncc(Cl)c(Nc6ccccc6P(C)(C)=O)n5)cc4Cl)CC3)C2)C1 [Example 34]
0.53
CP(C)(=O)c1ccccc1Nc1nc(Nc2ccc(N3CC4(CCC(NCCO)CC4)C3)c(Cl)c2)ncc1Cl [Example 12]
1
CP(C)(=O)c1ccccc1Nc1nc(Nc2ccc(N3CCC4(CC3)CC(N3CCCC3)C4)c(Cl)c2)ncc1Cl [Example 33]
0.4
Cc1cc(Nc2ncc(Cl)c(Nc3ccccc3P(C)(C)=O)n2)ccc1N1CCC2(CC1)CC(N)C2 [Example 14]
0.31

Reported IC50 for Cc1cc(Nc2ncc(Cl)c(Nc3ccccc3P(C)(C)=O)n2)ccc1N1CC2(CCC(N(C)C)CC2)C1 [Example 1] was 0.9

Short answer for CP(C)(=O)c1ccccc1Nc1nc(Nc2ccc(N3CCC4(CC3)CC(N)C4)c(Cl)c2)ncc1Cl [Example 8] : IC50 was 0.58

---

Collected GI50 values appear next to each entry.
molecular target: Ba/F3-L858R/T790M/C797S (Homo sapiens, UniProt P00533, T790M/C797S/L858R, cells depend on it); test: Ba/F3-L858R/T790M/C797S cells proliferation assay (CellTiter Glo); type: cell-based; details: cell proliferation, 72 h, numeric values; read-out: Ba/F3-L858R/T790M/C797S IC50
Sequence (P00533 whole entry T790M/C797S/L858R): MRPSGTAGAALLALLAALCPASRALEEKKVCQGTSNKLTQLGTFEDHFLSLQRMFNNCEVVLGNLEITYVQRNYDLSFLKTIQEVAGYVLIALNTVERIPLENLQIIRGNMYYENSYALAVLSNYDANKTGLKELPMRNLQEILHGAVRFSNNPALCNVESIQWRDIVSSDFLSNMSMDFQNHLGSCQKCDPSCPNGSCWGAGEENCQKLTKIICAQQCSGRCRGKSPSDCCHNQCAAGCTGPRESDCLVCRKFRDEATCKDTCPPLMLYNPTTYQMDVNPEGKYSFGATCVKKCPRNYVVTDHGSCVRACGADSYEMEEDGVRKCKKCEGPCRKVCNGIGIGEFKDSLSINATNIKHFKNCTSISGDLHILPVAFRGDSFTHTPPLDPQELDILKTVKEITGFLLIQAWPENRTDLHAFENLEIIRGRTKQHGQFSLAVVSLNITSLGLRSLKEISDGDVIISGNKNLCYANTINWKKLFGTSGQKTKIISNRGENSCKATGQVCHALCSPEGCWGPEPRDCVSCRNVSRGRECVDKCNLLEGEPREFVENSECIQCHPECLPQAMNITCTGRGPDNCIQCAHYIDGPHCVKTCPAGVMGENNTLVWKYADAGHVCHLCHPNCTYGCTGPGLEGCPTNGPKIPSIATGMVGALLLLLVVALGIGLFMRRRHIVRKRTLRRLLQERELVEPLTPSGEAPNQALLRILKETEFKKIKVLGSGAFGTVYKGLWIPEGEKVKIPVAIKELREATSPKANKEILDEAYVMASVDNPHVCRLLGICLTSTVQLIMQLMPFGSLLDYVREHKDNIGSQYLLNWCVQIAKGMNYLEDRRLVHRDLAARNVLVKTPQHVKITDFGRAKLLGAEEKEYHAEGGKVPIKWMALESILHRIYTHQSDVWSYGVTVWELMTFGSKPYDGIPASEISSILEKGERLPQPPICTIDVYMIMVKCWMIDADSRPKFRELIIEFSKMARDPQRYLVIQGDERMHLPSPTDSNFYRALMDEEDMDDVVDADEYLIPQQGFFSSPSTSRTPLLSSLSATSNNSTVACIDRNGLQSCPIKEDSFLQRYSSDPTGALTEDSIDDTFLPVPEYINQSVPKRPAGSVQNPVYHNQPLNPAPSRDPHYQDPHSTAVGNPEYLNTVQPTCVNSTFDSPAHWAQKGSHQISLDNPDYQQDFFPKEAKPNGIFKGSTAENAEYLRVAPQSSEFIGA
Structures can show the parent of a compound that is named as a salt.
Number first, unit second: that is the form wanted.

Cc1cc(Nc2ncc(Cl)c(Nc3ccccc3P(C)(C)=O)n2)ccc1N1CC2(CCC(N(C)C)CC2)C1
0.006 µM
CN(C)[C@@H]1CCN(C2CC3(CCN(c4ccc(Nc5ncc(Cl)c(Nc6ccccc6P(C)(C)=O)n5)cc4Cl)CC3)C2)C1
0.0217 µM
CP(C)(=O)c1ccccc1Nc1nc(Nc2ccc(N3CCC4(CC3)CC(N)C4)cc2)ncc1Cl [Example 16, hydrochloride]
0.0069 µM
Cc1cc(Nc2ncc(Cl)c(Nc3ccccc3P(C)(C)=O)n2)ccc1N1CCC2(CC1)CC(N(C)C)C2
0.017 µM
Cc1cc(Nc2ncc(Cl)c(Nc3ccccc3P(C)(C)=O)n2)ccc1N1CC2(CC(N)C2)C1
0.0242 µM
Cc1cc(Nc2ncc(Cl)c(Nc3ccccc3P(C)(C)=O)n2)ccc1N1CCC2(CC1)CC(N)C2
0.0151 µM

Now consider the entry below.
Recorded GI50 (compound CP(C)(=O)c1ccccc1Nc1nc(Nc2ccc(N3CCC4(CC3)CC(N3CCCC3)C4)c(Cl)c2)ncc1Cl ): 0.0117 µM

---

Consider the following compounds and their measured GI50 readings.
target: Ba/F3-Del19/T790M/C797S (Homo sapiens, UniProt P00533, T790M/C797S, cells depend on it, form not given); test: Ba/F3-Del19/T790M/C797S cells proliferation assay (CellTiter Glo); format: cell-based; settings: cell proliferation, 72 h, class symbols; read-out: Ba/F3-Del19/T790M/C797S IC50
Sequence (P00533 with tags, fused parts or gaps DEL746-750/T790M/C797S, form open): as the sequence (P00533 with tags, fused parts or gaps DEL746-750/T790M/C797S, form open) above

Before answering, review these 3 worked examples.
COc1cnc(Nc2ccc(N3CCC4(CC3)CC(N)C4)c(C)c2)nc1Nc1ccccc1P(C)(C)=O [Example 27]
> 50 nM
CN(C)C1CC2(CCN(c3ccc(Nc4ncc(Cl)c(Nc5ccccc5P(C)(C)=O)n4)cc3)CC2)C1 [Example 17]
≤ 10 nM
CP(C)(=O)c1ccccc1Nc1nc(Nc2ccc(N3CCC4(CC3)CC(NCCO)C4)c(Cl)c2)ncc1Cl [Example 32]
> 50 nM

Per the record, Cc1cc(Nc2ncc(C)c(Nc3ccccc3P(C)(C)=O)n2)ccc1N1CC2(CC(N)C2)C1 [Example 22] has GI50 of > 50 nM

---

experiment: Pharmacokinetic assay, oral administration; format: in vivo; settings: rat, male SD rats, p.o. 5 mg/kg, plasma, formulation differs per row
AUC(0-t) vs 1000 ng·h/mL: at or above is MET, below is NOT MET.

Example entries begin here.
Cc1cc(Nc2ncc(Cl)c(Nc3ccccc3P(C)(C)=O)n2)ccc1N1CCC2(CC1)CC(N(C)C)C2 [Example 15]
MET
CN(C)C1CCC2(CC1)CN(c1ccc(Nc3ncc(Cl)c(Nc4ccccc4P(C)(C)=O)n3)cc1Cl)C2 [Example 10]
NOT MET
CCN1CC2(C1)CN(c1ccc(Nc3ncc(Cl)c(Nc4ccccc4P(C)(C)=O)n3)cc1C)C2 [Comparative compound B, reference compound]
NOT MET
CN(C)C1CC2(CCN(c3ccc(Nc4ncc(Cl)c(Nc5ccccc5P(C)(C)=O)n4)cc3Cl)CC2)C1 [Example 6]
MET

Q. Check this compound for AUC(0-t) at or above 1000 ng·h/mL: CP(C)(=O)c1ccccc1Nc1nc(Nc2ccc(N3CCC4(CC3)CC(N)C4)c(Cl)c2)ncc1Cl [Example 8]
A. MET
